- protocol_text: in vivo
- assay_conditions: ip
assay_endpoint: TD50 (mg/kg)
The response must be a number in mg/kg with no trailing unit.

Exercise: Determine its reported TD50: "O=C1N(c2cccc(Cl)c2)N=C2C3CC4CC(C3)CC12C4"
Key: 25
